Exercise: state measured Kd for each of the binders provided.
molecular target: T1, Human EREG (Biacore analyte) (human, UniProt O14944 63-108); assay: SPR (Biacore T100), antibody captured on Protein A, EREG as analyte, single-cycle kinetics
T1 construct: also called hEREG; human epiregulin
T1 sequence (O14944 63-108 limits assumed): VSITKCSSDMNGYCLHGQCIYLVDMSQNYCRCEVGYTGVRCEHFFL
Report only the number, with the unit nM understood.

Query string: Record request: Kd value, item H206-G1d/L53-k (antibody, human IgG1, kappa, V domains shown) VH: QDQLVQSGAEVKNPGASVKVSCKASGFNIKDTYIQWVRQAPGQGLEWMGRIDPLRRQTKYREKFEGRVTITADTSTNTAYMELSSLRSEDTAVYYCVRSGREFDFWGQGTLVTVSS VL: DIQMTQSPSSLSASVGDRVTITCRASQDIHKYIAWYQQKPGQAPRLLIQYTSTLQPGVPSRFSGSGSGTDYTFTISSLQPEDIATYYCLQYDNLRTFGGGTKVEIKR
Result string: 0.17

Query string: Record request: Kd value, item H240-G1d/L53-k (antibody, human IgG1, kappa, V domains shown) VH: QDQLVQSGAEVKKPGASVKVSCKASGFNIKDTYIQWVRQAPGQGLEWMGRIDPLRKQTKYREKFEGRVTITADTSTNTAYMELSSLRSEDTAVYYCVRSGREFDYWGQGTLVTVSS VL: DIQMTQSPSSLSASVGDRVTITCRASQDIHKYIAWYQQKPGQAPRLLIQYTSTLQPGVPSRFSGSGSGTDYTFTISSLQPEDIATYYCLQYDNLRTFGGGTKVEIKR
Result string: 0.27

Query string: Record request: Kd value, item H240-G1d/L73-k (antibody, human IgG1, kappa, V domains shown) VH: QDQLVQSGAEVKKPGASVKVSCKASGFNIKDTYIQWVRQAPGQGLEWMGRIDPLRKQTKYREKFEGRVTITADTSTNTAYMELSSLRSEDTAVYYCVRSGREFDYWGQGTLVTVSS VL: DIQMTQSPSSLSASVGDRVTITCRASQDIHKYIAWYQQKPGQAPRLLIQYTSTLQPGVPSRFSGSGSGTDYTFTISSLQPEDIATYYCLQYEQLRTFGGGTKVEIKR
Result string: 0.22
